These entries and their values trace back to patent US20160264593A1.

test_summary: Pharmacokinetic study of 153 (and metabolite endothal) in SD rats, iv and po; plasma, liver, brain
Type: in vivo
experimental_context: female, SD, rat, in vivo, po, 1.25 mg/kg, PO per title, 1.25 mg/kg, 1 hr, Rat 1; read-out: 153 liver concentration
readout_name: concentration at 1 h
Kindly format the answer as number then unit.

Input: Sample CCCOC(=O)C1C2CCC(O2)C1C(=O)N1CCN(C)CC1 (stereo not shown) [Compound 153] — what was its concentration at 1 h?
Output: 131 ng/g

* * *

test_summary: Pharmacokinetic study of 100 (and metabolite endothal) in SD rats, iv; plasma, liver, brain
experimental_context: female, SD, rat, in vivo, iv, 1.5 mg/kg, Endothal liver concentration, 100 iv 1.5 mg/kg, SD rats, 1 hr, individual
readout_name: concentration at 1 h (ng/g)
One number for each entry, in ng/g.

Input: Sample O=C(O)C1C2CCC(O2)C1C(=O)O (stereo not shown) [Endothal] — what was its concentration at 1 h?
Output: 2870

* * *

Tested on: PP2A
test_summary: PP2A activity in mouse livers after IP dosing (PP2A immunoprecipitation phosphatase assay, malachite green)
Type: in vivo, Balb/c mice
experimental_context: high dose IP (mpk: 100 1.5, 113 2.2, 151 1.6, 157 2.0), 3 h, liver
Exercise: for every item that follows, state its recorded Average Conc. (group of 3 mice).
Answers are plain numbers.

CN1CCN(C(=O)C2C3CCC(O3)C2C(=O)O)CC1 (stereo not shown)	290.15

Provide the reported Average Conc. (group of 3 mice) of each entry below, same order.
1. COC(=O)C1C2CCC(O2)C1C(=O)N1CCN(C)CC1 (stereo not shown)
2. CCCCCCCOC(=O)C1C2CCC(O2)C1C(=O)N1CCN(C)CC1 (stereo not shown)

Output:
472.47
234.28

Input: Sample CN1CCN(C(=O)C2C(C(=O)OCC(Cl)(Cl)Cl)[C@H]3CC[C@@H]2O3)CC1 (stereo partly shown) — what was its Average Conc. (group of 3 mice)?
Output: 138.31

* * *

test_summary: in vivo
experimental_context: female, Sprague-Dawley (SD), rat, in vivo, iv, 0.5 mg/kg, 100 liver concentration
readout_name: concentration at 2 h (ng/g)
Answers are plain numbers, in ng/g.

Input: Sample CN1CCN(C(=O)C2C3CCC(O3)C2C(=O)O)CC1 (stereo not shown) — what was its concentration at 2 h?
Output: 109

* * *

test_summary: Pharmacokinetic study of 153 (and metabolite endothal) in SD rats, iv and po; plasma, liver, brain
Format: in vivo
experimental_context: female, SD, rat, in vivo, iv, 1.25 mg/kg, iv 1.25 mg/kg, 0.25 hr, Rat 1; read-out: 153 brain concentration
Description: The blood, liver and brain tissue samples were collected at predetermined times from rats. […] Compound were diluted shortly before use in 4% sodium bicarbonate for sterile injection (this is the standard pediatric solution of NaHCO3 with a pH of about 8.5). Compound 153 was freshly prepared by diluting the drugs shortly before use in 4% sodium bicarbonate for sterile injection (this is the standard pediatric solution of NaHCO3 with a pH of about 8.5). […]
readout_name: concentration at 0.25 h (ng/g)
One number for each entry, in ng/g.

Input: Sample CCCOC(=O)C1C2CCC(O2)C1C(=O)N1CCN(C)CC1 (stereo not shown) — what was its concentration at 0.25 h?
Output: 45
